# assayed_target: EGFR (Homo sapiens)
# Construct: Add 7 ug A431 cell lysate per well (EGFR source); endogenous in cells; host or cells: A431
# Sequence (P00533 25-1210): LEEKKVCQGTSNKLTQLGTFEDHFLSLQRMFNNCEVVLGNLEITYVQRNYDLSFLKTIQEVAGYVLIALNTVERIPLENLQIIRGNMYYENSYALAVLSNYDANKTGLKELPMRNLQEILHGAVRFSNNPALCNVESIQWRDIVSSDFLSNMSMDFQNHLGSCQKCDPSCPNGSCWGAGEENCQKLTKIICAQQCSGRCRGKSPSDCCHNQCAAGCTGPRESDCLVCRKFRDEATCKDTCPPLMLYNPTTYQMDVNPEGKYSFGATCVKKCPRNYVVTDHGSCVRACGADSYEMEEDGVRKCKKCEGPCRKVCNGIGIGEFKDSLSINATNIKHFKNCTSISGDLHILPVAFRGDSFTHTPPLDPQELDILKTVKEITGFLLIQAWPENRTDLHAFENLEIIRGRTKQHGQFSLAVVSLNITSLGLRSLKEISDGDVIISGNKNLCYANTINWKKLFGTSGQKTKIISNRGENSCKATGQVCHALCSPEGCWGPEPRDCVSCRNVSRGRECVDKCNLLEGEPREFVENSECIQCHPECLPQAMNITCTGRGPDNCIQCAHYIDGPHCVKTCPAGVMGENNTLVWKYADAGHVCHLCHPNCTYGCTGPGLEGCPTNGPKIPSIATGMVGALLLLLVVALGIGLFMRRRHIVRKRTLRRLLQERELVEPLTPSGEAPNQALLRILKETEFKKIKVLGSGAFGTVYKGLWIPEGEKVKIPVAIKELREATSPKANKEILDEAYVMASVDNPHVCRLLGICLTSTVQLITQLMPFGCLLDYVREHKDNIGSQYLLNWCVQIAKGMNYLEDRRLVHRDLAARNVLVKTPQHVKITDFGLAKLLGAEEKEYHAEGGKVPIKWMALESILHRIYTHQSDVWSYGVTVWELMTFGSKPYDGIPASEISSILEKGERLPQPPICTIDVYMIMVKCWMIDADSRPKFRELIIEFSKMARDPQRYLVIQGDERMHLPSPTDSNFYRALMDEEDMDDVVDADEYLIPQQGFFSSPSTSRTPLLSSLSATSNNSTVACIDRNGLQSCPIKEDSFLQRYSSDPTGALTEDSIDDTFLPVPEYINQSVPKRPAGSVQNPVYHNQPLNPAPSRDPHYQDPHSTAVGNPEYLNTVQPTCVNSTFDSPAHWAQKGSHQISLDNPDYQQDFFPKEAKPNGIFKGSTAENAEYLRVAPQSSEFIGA
# test: EGFR ELISA assay (in vitro kinase activity, EGFR captured from A431 cell lysate)
# Assay type: biochemical
# Parameters: concentration or dose not given beside the values

molecule | endpoint_unit | Biochem EGFR %Inhibition
O=C1Nc2ccc(S(=O)(=O)Nc3ccc(C(F)(F)F)cc3)cc2C1=Cc1c[nH]cn1 [10725/E11] | % | -36.0
O=C1Nc2c(Br)cc(Br)cc2C1=Cc1ccc(C(F)(F)F)cc1 [10722/A11] | % | -0.1
O=C1Nc2ccc(S(=O)(=O)N3CCOCC3)cc2C1=Cc1cc(O)c(O)c(Br)c1 [10723/F04] | % | 17.5
O=C1Nc2ccc(S(=O)(=O)Nc3ccc(C(F)(F)F)cc3)cc2C1=Cc1ccc(N2CCCC2)cc1 [10729/E10] | % | 50.3
Cc1ccc(C=C2C(=O)Nc3ccc(I)cc32)s1 [10717/B07] | % | 58.3
COc1ccc(Br)c(C=C2C(=O)Nc3ccc(I)cc32)c1O [10725/B03] | % | -15.3
CNS(=O)(=O)c1ccc2c(c1)C(=Cc1coc3ccc(C)cc3c1=O)C(=O)N2 [10731/D06] | % | 23.2
O=C1Nc2ccc(I)cc2C1=Cc1ccc([N+](=O)[O-])cc1 [10734/B06] | % | 54.0
O=C1Nc2ccc(S(=O)(=O)N3CCOCC3)cc2C1=Cc1ccc(O)cc1 [10719/F07] | % | 20.1
COc1cc(N(C)C)ccc1C=C1C(=O)Nc2ccc(CCCl)cc21 [10728/G05] | % | 7.2
CCOc1ccccc1C=C1C(=O)Nc2ccc(Br)c(C)c21 [10717/C02] | % | -0.4
O=C1Nc2ccc(CCCl)cc2C1=Cc1cc(Br)cc(Br)c1O [10734/G07] | % | 51.1
COC(=O)Cc1c(Cl)[nH]c(C=C2C(=O)Nc3ccc(S(=O)(=O)N4CCOCC4)cc32)c1C(=O)OC [10725/F09] | % | 32.2
CNS(=O)(=O)c1ccc2c(c1)C(=C1C(=O)Nc3ccc(F)cc31)C(=O)N2 [10726/D08] | % | -11.4
O=C1Nc2ccc(S(=O)(=O)Nc3ccc(C(F)(F)F)cc3)cc2C1=Cc1ccc[nH]1 [10717/E09] | % | -5.8
CNS(=O)(=O)c1ccc2c(c1)C(=Cc1ccc(OCc3ccccc3)c(C(C)(C)C)c1)C(=O)N2 [10732/D06] | % | 3.6
O=C1Nc2ccc(I)cc2C1=Cc1ccccc1Br [10723/B07] | % | 28.8
CC(C)(C)c1cc(C=C2C(=O)Nc3ccc(S(=O)(=O)N4CCOCC4)cc32)cc(Cl)c1OCc1ccccc1 [10732/F10] | % | 0.8

====

# System: MET
# test: MET biochemical kinase assay
# Set-up: species or system human; concentration or dose not given beside the values
I would appreciate it if you labelled entries t when Met Kinase % Inhibition is 40% or higher, otherwise f.

molecule | assayed_target | label_value
COc1c(Br)cc(C=C2C(=O)Nc3c(Br)cc(Br)cc32)cc1C(C)(C)C [10732/A07] | MET | f
COc1cc(C=C2C(=O)Nc3c(Br)cc(Br)cc32)cc(OC)c1 [10728/A04] | MET | f
Cc1csc2sc(C=C3C(=O)Nc4ccc(I)cc43)c(C)c12 [10724/B11] | MET | t
CCN(CC)c1ccc(C=C2C(=O)Nc3ccc(S(=O)(=O)NC)cc32)cc1 [10727/D02] | MET | t
Cc1cn(C)cc1C=C1C(=O)Nc2ccc(Br)c(C)c21 [10726/C06] | MET | t
O=CN1CCN(c2ccc(C=C3C(=O)Nc4ccc(I)cc43)cc2)CC1 [10725/B07] | MET | t
COc1ccc(C=C2C(=O)Nc3ccc(S(=O)(=O)N4CCOCC4)cc32)c(OC)c1 [10719/F04] | MET | f
CC(C)(C)c1cc(C=C2C(=O)Nc3ccc(I)cc32)cc(Cl)c1OCc1ccccc1 [10732/B10] | MET | t

# credit: patent EP1247803A2
